We begin with a simple list: items and their reported EC50.
- system name: Gal4-RORγ-LBD (Homo sapiens)
- Construct: expressed in transfected cells
- assay procedure: Gal4-RORγ Luciferase Reporter Assay in HEK-293T Cells
- Format: cell-based
- applied conditions: HEK-293 cells, luciferase reporter, in presence of ursolic acid

Look up EC50 of C/C(=C\c1ccc2c(c1)N(S(=O)(=O)c1cccc(C(F)(F)F)c1)C[C@H](CO)O2)c1c(F)cccc1Cl [Example 125] and report it. < 500 nM

Look up EC50 of C/C(=C\c1ccc2c(c1)N(S(=O)(=O)c1cccc(C(F)(F)F)c1)C[C@H]([C@@H](C)NS(C)(=O)=O)O2)c1c(F)cccc1Cl [Example 105] and report it. < 500 nM

Look up EC50 of C/C(=C\c1ccc2c(c1)N(S(=O)(=O)c1cccc(C(F)(F)F)c1)[C@H](C)[C@H](NS(C)(=O)=O)C2)c1c(F)cccc1Cl [Example 116J] and report it. 500 to 5000 nM

Look up EC50 of CC(=O)NCC1CC(S(=O)(=O)c2cccc(C(F)(F)F)c2)c2cc(/C=C(\C)c3c(F)cccc3Cl)ccc2O1 (stereo not shown) [Example 181] and report it. < 500 nM

Look up EC50 of C/C(=C\c1ccc2c(c1)N(S(=O)(=O)c1cccc(C(F)(F)F)c1)C[C@H](CCC(=O)N1CCC(C(N)=O)CC1)O2)c1c(F)cccc1Cl [Example 127A] and report it. < 500 nM

Look up EC50 of COc1cc(S(=O)(=O)N2C[C@H](CNC(=O)C(=O)O)Oc3ccc(/C=C(\C)c4c(F)cccc4Cl)cc32)ccc1F [Example 135B] and report it. > 10000 nM

Look up EC50 of COC(=O)CCC1CC(S(=O)(=O)c2cccc(C(F)(F)F)c2)c2cc(/C=C(\C)c3c(F)cccc3Cl)ccc2O1 (stereo not shown) [Example 186H] and report it. < 500 nM

Look up EC50 of C/C(=C\c1ccc2c(c1)N(S(=O)(=O)c1cccc(C(F)(F)F)c1)C[C@H](CCCN1CCC(O)C1)O2)c1c(F)cccc1Cl (stereo partly shown) [Example 119B] and report it. 500 to 5000 nM

Look up EC50 of COc1cc(S(=O)(=O)N2C[C@H](CNC(=O)[C@H]3CC[C@H](C(=O)O)CC3)Oc3ccc(/C=C(\C)c4c(F)cccc4Cl)cc32)ccc1F [Example 135C] and report it. 500 to 5000 nM

Look up EC50 of C/C(=C\c1ccc2c(c1)C(S(=O)(=O)c1cccc(C(F)(F)F)c1)CC(CNC(=O)C(C)(C)O)O2)c1c(F)cccc1Cl (stereo not shown) [Example 182] and report it. < 500 nM

Look up EC50 of C/C(=C\c1ccc2c(c1)N(S(=O)(=O)c1cccc(C(F)(F)F)c1)C[C@H](CCCN1CCOCC1)O2)c1c(F)cccc1Cl [Example 119D] and report it. < 500 nM

Look up EC50 of CC(=O)NCC[C@H]1CN(S(=O)(=O)c2cccc(C(F)(F)F)c2)c2cc(/C=C(\C)c3c(F)cccc3Cl)ccc2O1 [Example 112] and report it. < 500 nM

Look up EC50 of C/C(=C\c1ccc2c(c1)C(S(=O)(=O)c1cccc(C(F)(F)F)c1)CC(CN)O2)c1c(F)cccc1Cl (stereo not shown) [Example 180] and report it. 500 to 5000 nM

Look up EC50 of COc1cc(S(=O)(=O)N2C[C@H](CC(C)(C)C(=O)O)Cc3ccc(/C=C/c4c(F)cccc4Cl)cc32)ccc1F [Example 154A] and report it. < 500 nM

Look up EC50 of C/C(=C\c1ccc2c(c1)N(S(=O)(=O)c1cccc(C(F)(F)F)c1)C[C@H](CCNS(=O)(=O)C1CC1)O2)c1c(F)cccc1Cl [Example 116A] and report it. < 500 nM

Look up EC50 of C/C(=C\c1ccc2c(c1)N(S(=O)(=O)c1cccc(C(F)(F)F)c1)CCC2=O)c1c(F)cccc1Cl [Example 188] and report it. 500 to 5000 nM

====

- system name: Gal4-RORγ-LBD (Homo sapiens)
- Construct: expressed in transfected cells
- assay procedure: Gal4-RORγ Luciferase Reporter Assay in HEK-293T Cells
- Type: cell-based
- applied conditions: HEK-293 cells, luciferase reporter, in presence of ursolic acid
We begin with a simple list: items and their reported EC50.

Look up EC50 of CC(=O)NC[C@H]1CN(S(=O)(=O)c2cccc(C(F)(F)F)c2)c2cc(/C=C(\C)c3c(F)cccc3Cl)ccc2O1 [Example 109C] and report it. < 500 nM

Look up EC50 of C/C(=C\c1ccc2c(c1)N(S(=O)(=O)c1cccc(C(F)(F)F)c1)C[C@H](CCN1CCC(C(=O)O)CC1)O2)c1c(F)cccc1Cl and report it. < 500 nM

Look up EC50 of C/C(=C\c1ccc2c(c1)N(S(=O)(=O)c1cccc(C(F)(F)F)c1)C[C@H](NC(=O)C(C)(C)O)C2)c1c(F)cccc1Cl [Example 116F] and report it. 500 to 5000 nM

Look up EC50 of C/C(=C\c1ccc2c(c1)N(S(=O)(=O)c1cccc(C(F)(F)F)c1)[C@H](C)[C@H](N)C2)c1c(F)cccc1Cl and report it. 500 to 5000 nM

More entries:
Look up EC50 of CCn1cc(S(=O)(=O)N2C[C@H](CCC(C)(C)O)Oc3ccc(/C=C(\C)c4c(F)cccc4Cl)cc32)c(OCCO)n1 [Example 121C] and report it. < 500 nM

Look up EC50 of C/C(=C\c1ccc2c(c1)N(S(=O)(=O)c1cccc(C(F)(F)F)c1)C[C@H](CCC(=O)N1C[C@@H](C)O[C@@H](C)C1)O2)c1c(F)cccc1Cl [Example 127E] and report it. < 500 nM

====

- system name: Gal4-RORγ-LBD (Homo sapiens, UniProt P51449)
- Construct: expressed in transfected cells
- Sequence (P51449 269-508 limits assumed): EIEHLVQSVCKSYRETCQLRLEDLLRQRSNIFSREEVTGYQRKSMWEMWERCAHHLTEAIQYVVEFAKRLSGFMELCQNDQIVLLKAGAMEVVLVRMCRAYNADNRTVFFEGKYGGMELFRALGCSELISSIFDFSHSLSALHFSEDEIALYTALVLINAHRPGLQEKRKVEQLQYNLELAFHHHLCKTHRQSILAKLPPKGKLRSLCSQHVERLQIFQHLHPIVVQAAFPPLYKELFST
- assay procedure: Gal4-RORγ Luciferase Reporter Assay in HEK-293T Cells
- Format: cell-based
- applied conditions: HEK-293 cells, luciferase reporter, in presence of ursolic acid
pEC50: −log10 of the molar value.
We begin with a simple list: items and their reported pEC50.

As a guide, the following entries are already answered.
Look up pEC50 of C/C(=C\c1ccc2c(c1)N(S(=O)(=O)c1cccc(C(F)(F)F)c1)C[C@@H](NS(C)(=O)=O)C2)c1c(F)cccc1Cl [Example 116I] and report it. 5.30 to 6.30

Look up pEC50 of CCOc1ncc(C(F)(F)F)cc1S(=O)(=O)N1C[C@H](CCC(=O)N2CCC(C(=O)O)CC2)Oc2ccc(/C=C(\C)c3c(F)cccc3Cl)cc21 [Example 129L] and report it. > 6.30

Look up pEC50 of C/C(=C\c1ccc2c(c1)N(S(=O)(=O)c1cccc(C(F)(F)F)c1)C[C@H](CCC(=O)N1CCC(C(=O)[O-])CC1)O2)c1c(F)cccc1Cl.[Na+] [Example 128] and report it. > 6.30

Look up pEC50 of COc1cc(S(=O)(=O)N2C[C@H](CCC(=O)O)Oc3ccc(/C=C(\C)C4CCCC4)cc32)ccc1F [Example 191A] and report it. 5.30 to 6.30

Look up pEC50 of COC(=O)CCC1CC(S(=O)(=O)c2cccc(C(F)(F)F)c2)c2cc(OCc3c(F)cccc3Cl)ccc2O1 (stereo not shown) [Example 186B] and report it. > 6.30

More entries:
Look up pEC50 of C/C(=C\c1ccc2c(c1)N(S(=O)(=O)c1cccc(C(F)(F)F)c1)C[C@H](CCC(=O)NCCC(=O)O)O2)c1c(F)cccc1Cl [Example 129P] and report it. > 6.30

====

- system name: Gal4-RORγ-LBD (Homo sapiens, UniProt P51449)
- Construct: expressed in transfected cells
- assay procedure: Gal4-RORγ Luciferase Reporter Assay in HEK-293T Cells
- Assay type: cell-based
- applied conditions: HEK-293 cells, luciferase reporter, with ursolic acid
- From the text: Assay procedures and results are described below. […] The cells were harvested as described above, counted, and centrifuged to obtain the desired number of cells, then re-suspended in complete growth media at 0.75×10^6 cells/mL. […] The luciferase intensity was read on an Envision plate reader (Perkin Elmer). […] The Max Response is the upper plateau in the signal as determined by line-fit using a 4-parameter logistic model in PRISM (GraphPad).
pEC50: −log10 of the molar value.
property measured: pEC50

Fill in: pEC50 on Gal4-RORγ-LBD (Homo sapiens, UniProt P51449), entry CCn1cc(S(=O)(=O)N2C[C@H]([C@H](C)O)Oc3ccc(/C=C(\C)c4c(F)cccc4Cl)cc32)c(Cl)n1 [Example 97] > 6.30

More entries:
Fill in: pEC50 on Gal4-RORγ-LBD (Homo sapiens, UniProt P51449), entry CCOc1nn(CC)cc1S(=O)(=O)N1C[C@H](CCC(=O)O)Oc2ccc(/C=C(\C)c3c(Cl)cccc3C(F)(F)F)cc21 [Example 86AW] > 6.30

Fill in: pEC50 on Gal4-RORγ-LBD (Homo sapiens, UniProt P51449), entry CC/C(=C\c1ccc2c(c1)N(S(=O)(=O)c1cccc(C(F)(F)F)c1)C[C@H](CCC(=O)OC)O2)c1ccccc1Cl [Example 35] 5.30 to 6.30

Fill in: pEC50 on Gal4-RORγ-LBD (Homo sapiens, UniProt P51449), entry COC(=O)CC[C@H]1CN(S(=O)(=O)c2cccc(C(F)F)c2)c2cc(/C=C/c3c(Cl)cccc3C(F)F)ccc2O1 [Example 89EQ] > 6.30

Fill in: pEC50 on Gal4-RORγ-LBD (Homo sapiens, UniProt P51449), entry CCOc1nn(CC)cc1S(=O)(=O)N1C[C@H](CCC(=O)O)Oc2ccc(/C=C/c3nccnc3Cl)cc21 [Example 89M] < 5.00

Fill in: pEC50 on Gal4-RORγ-LBD (Homo sapiens, UniProt P51449), entry CC(=O)N[C@H](C)[C@H]1CN(S(=O)(=O)c2cccc(C(F)(F)F)c2)c2cc(/C=C(\C)c3c(F)cccc3Cl)ccc2O1 [Example 103] > 6.30

Fill in: pEC50 on Gal4-RORγ-LBD (Homo sapiens, UniProt P51449), entry CCOc1nn(CC)cc1S(=O)(=O)N1C[C@H](CCC(=O)OC)Oc2ccc(/C=C/c3ccccc3F)cc21 [Example 89AN] < 5.00

Fill in: pEC50 on Gal4-RORγ-LBD (Homo sapiens, UniProt P51449), entry CC/C(=C\c1ccc2c(c1)N(S(=O)(=O)c1cccc(C(F)(F)F)c1)C[C@H](CCC(=O)O)O2)c1ccccc1Cl [Example 36A] > 6.30
